Procedure summary: Plasma concentration in mongrel dog arterio-venous shunt model of thrombosis at 3 mg/kg, po after 1 hr
Type: ADME, organism-based, Canis lupus familiaris
Design: dose 3 mg/kg, route oral
Known concentration at 1 h of a selection of molecules

[[record]]
compound = "N#Cc1cnc(NCC(F)(F)c2ccccc2)c(=O)n1CC(=O)NCCON=C(N)N"
result = "480 nM"


// moving on: another record for concentration at 1 h
molecule Cc1cnc(NCC(F)(F)c2ccccc2)c(=O)n1CC(=O)NCCONC(=N)N , concentration at 1 h observed: 870 nM

----------
Procedure summary: in vitro
Test context: human, Caco-2
Measured attribute: Papp B→A (×10⁻⁶ cm/s)
Entry rule: numbers only, all in ×10⁻⁶ cm/s.

Answered examples (3):
[[record]]
compound = "Cc1cnc(NCCc2ccc(F)c(F)c2)c(=O)n1CC(=O)NCCONC(=N)N"
measured_attribute = "Papp B→A"
recorded_number = 1.84

[[record]]
compound = "Cc1cnc(NCCc2ccc3c(c2)CCC3)c(=O)n1CC(=O)NCCONC(=N)N"
measured_attribute = "Papp B→A"
recorded_number = 4.29

[[record]]
compound = "CCc1ccc(CCNc2ncc(C)n(CC(=O)NCCONC(=N)N)c2=O)cc1"
measured_attribute = "Papp B→A"
recorded_number = 10.3


For N#Cc1cnc(NCC(F)(F)c2ccccc2)c(=O)n1CC(=O)NCCON=C(N)N the molecule record lists Papp B→A as 2.26

Given item Cc1cnc(NCC(F)(F)c2ccccc2)c(=O)n1CC(=O)NCCONC(=N)N , the value recorded as its Papp B→A is 6.45
